For each of the compounds below, state its TGI.
- Tested on: UACC-62 melanoma
- methodDescription: NCI tumour cell line growth inhibition, 48 h

Provide measured TGI on UACC-62 melanoma for "CC(C)(CO)NC(=O)c1cccs1" please. > 100 µM

Specify TGI for "CC1=C(C(=O)NCCCN(CCO)CCO)CC(C(=O)NCCCN(CCO)CCO)=C(C)N1" , system UACC-62 melanoma. > 100 µM

GET TGI | system: UACC-62 melanoma | item: Cc1cc(=O)[nH]c(NNC(C#N)c2ccc(N(C)C)cc2)n1 (stereo not drawn) > 100 µM

Param request: TGI | system UACC-62 melanoma | item "O=C(O)CCCc1cc2c(s1)-c1cccc3cccc-2c13" 47.2 µM

Please report TGI with UACC-62 melanoma for item "COc1cc(C(=O)N(C(=O)N2CCCCC2)c2ccccc2)cc(OC)c1OC" . > 100 µM

Write down measured TGI (UACC-62 melanoma) for this compound. "NNc1ncnc2cccc(Cl)c12" > 100 µM

Check UACC-62 melanoma data and give TGI for COC(=O)C1=Cc2cn(S(=O)(=O)c3ccc(C)cc3)c3cccc(c23)C(C=C(C)C)N1C(C)=O (stereo not drawn) . > 100 µM

With UACC-62 melanoma as the test system, provide measured TGI for this compound: CCOP(=O)(OCC)C(C)(CC)/N=C(\N)NC#N (stereo not drawn) > 100 µM

Answer briefly: TGI recorded on UACC-62 melanoma for CCN(CC)CC(O)c1cc(-c2ccc(Cl)cc2)nc2cc(Cl)ccc12 (stereo not drawn) 3.1 µM

Provide UACC-62 melanoma TGI reading for "CN(C)CCNC(=O)c1cccc2[nH]c(-c3ccc(Cl)cc3)nc12" . 17.5 µM

State the measured TGI (UACC-62 melanoma) of "CN1CCN(Cn2nc(-c3cc(F)c(Cl)cc3Cl)oc2=S)CC1" 55.2 µM

Answer with TGI of COC1/C=C/OC2(C)Oc3c(C)c(O)c4c(O)c(c(C=NOC(c5ccccc5)c5ccccc5)c(O)c4c3C2=O)NC(=O)/C(C)=C/C=C/C(C)C(O)C(C)C(O)C(C)C(OC(C)=O)C1C (stereo not drawn) measured for UACC-62 melanoma. 1.97 µM

// output TGI; input O=C1NC2OC(CO)C(O)C(O)C2O1 (stereo not drawn) ; system UACC-62 melanoma > 100 µM

Quote TGI with test system UACC-62 melanoma for "NNC(=S)NN/C=C(\C=Nc1ccccc1)[N+](=O)[O-]" > 100 µM

Look up UACC-62 melanoma data: TGI of CCOC(=O)CCC(C(=O)OCC)n1nnc2ccc(Nc3c(C)[n+]([O-])c4cc(F)c(OCC)cc4[n+]3[O-])cc21 (stereo not drawn) , then report it. 43.1 µM

Provide UACC-62 melanoma TGI reading for "O=C(CSc1nnc(-c2ccc(N=Cc3ccc(Cl)cc3)cc2)o1)Nc1cccc([N+](=O)[O-])c1" . > 100 µM

Please report TGI with UACC-62 melanoma for item c1ccc(N2N=NC3C4CC(C5c6ccccc6C45)C32)cc1 (stereo not drawn) . > 100 µM

Please indicate recorded TGI of "CCOC(=O)[C@@]12NN=N[C@@H]1[C@H]1CO[C@H](c3ccccc3)N1C2=O" measured with UACC-62 melanoma. 21.2 µM

Write TGI of "COC(=O)[C@H](C)[C@@H]1CC[C@](C)(CCC2=C(C)CCCC2(C)C)OO1" ; system used: UACC-62 melanoma > 25 µM

Give TGI; test system UACC-62 melanoma; compound "CNC(=O)c1cc(Oc2ccc3nc(NC(=O)Nc4cc(C(F)(F)F)cc(C(F)(F)F)c4)sc3c2)ccn1" 2.1 µM

GET TGI where system = UACC-62 melanoma and item = COC(=O)CC1NC(=O)C1C(C)(OC)OC (stereo not drawn) > 100 µM

Write TGI of COc1cccc2c1C(=O)c1c(O)c3c(c(O)c1C2=O)CC(O)(C(C)=O)CC3O (stereo not drawn) ; system used: UACC-62 melanoma 14.4 µM

Param request: TGI | system UACC-62 melanoma | item "[Au+].c1c[n-]cn1.c1ccc([PH+](c2ccccc2)c2ccccc2)cc1" 29.2 µM

Report TGI on UACC-62 melanoma for this entry: "O=C(Nc1ccc(Cl)cc1)c1cc2ccccc2cc1OP(=O)(O)O" > 100 µM

State TGI on UACC-62 melanoma. Entry: "Cn1c(=O)oc2cc(C(=S)N3CCCCC3)ccc21" > 100 µM

// fetch TGI; item: "COc1cc2c(cc1OC)-c1[nH]c3ccc([N+](=O)[O-])cc3c1CC(=O)N2" ; system: UACC-62 melanoma > 100 µM

Report measured TGI on UACC-62 melanoma; entry: O=P(Nc1cccc(Cl)c1)(Oc1ccccc1)N(CCCl)CCCl (stereo not drawn) 24.4 µM

Write TGI of "CC(C)=Cc1cc(C(=O)NCCNC(=O)c2cc(C=C(C)C)nc(NC#N)n2)nc(NC#N)n1" ; system used: UACC-62 melanoma > 100 µM

Provide TGI, system UACC-62 melanoma, entry O=C1c2ccccc2C(=O)c2c(NCC3CO3)cccc21 (stereo not drawn) > 45.9 µM

# assay system UACC-62 melanoma: give TGI of Cc1cc(N(CCC#N)CCC#N)ccc1CC1N=C(c2ccccc2)OC1=O (stereo not drawn) > 100 µM

Please respond with reported TGI (system UACC-62 melanoma) for "CN(C)C=Nc1c2c(nc3ccccc13)CCCC2" . > 100 µM

Provide UACC-62 melanoma TGI reading for "O=c1[nH]c(-c2ccc(Cl)cc2)cc2ccsc12" . > 100 µM

Please indicate recorded TGI of "O=C(Nc1nc(-c2ccccc2Cl)cs1)c1cc(-c2ccc(Cl)cc2)nc2ccc(Cl)cc12" measured with UACC-62 melanoma. 26 µM

Under UACC-62 melanoma: report TGI of "Cc1cc2c(C)nn(Cc3ccccc3Cl)c2c(C#N)c1C" . > 100 µM

Under UACC-62 melanoma: report TGI of "CON(C(=O)OC(C)(C)C)c1ccccc1" . > 100 µM

Fill in TGI for CC(=O)CC12NC(=O)N(C)N=C1N(C)C(=O)N(C)C2=O (stereo not drawn) tested with UACC-62 melanoma. 73.3 µM

Find the measured TGI of "O=C1C(=Cc2ccc([N+](=O)[O-])o2)C(=O)N(CCc2ccccc2)S(=O)(=O)N1CCc1ccccc1" with UACC-62 melanoma as test system. 31 µM

Under UACC-62 melanoma, report TGI for "COc1ccc(OC)c(-c2cc(=O)c3cc4c(cc3[nH]2)OCO4)c1" > 100 µM

Would you please give the reported TGI of "COc1c(OC)c(OC)c(-c2cc(=O)c3c(OC)c(OC)c(OC)c(OC)c3o2)c(OC)c1OC" with UACC-62 melanoma? > 100 µM

Output reported TGI of the compound "COc1ccc2nc3c([N+](=O)[O-])ccc(NCCCN(C)C)c3c(N)c2c1" on UACC-62 melanoma. 3.79 µM

Provide TGI, tested on UACC-62 melanoma, for CCCCC1N=CNc2c1ccc1c2[nH]c2ccccc21 (stereo not drawn) . 8.94 µM

Determine reported TGI for COc1ccc2c(c1)CC1N(C)CCC13CCCCC23 (stereo not drawn) ; test system: UACC-62 melanoma. > 100 µM

Find TGI for CCOC(=O)CP(=S)(S)c1ccccc1 (stereo not drawn) on UACC-62 melanoma and write it down. > 100 µM
